Tested on: Macrophage
Assay: Inhibition of nitric oxide production in lipopolysaccharide-activated ddY mouse macrophages at 100 uM relative to control
Format: functional
inhibition at 100 µM overview
Numbers only here, please. The scale is %.

- COMPOUND: "CC(=O)OC[C@@]12CC[C@@]3(C)[C@H]4C(=CC[C@]3(C)[C@H]1[C@H](O)C[C@H]2C(C)C)[C@@]1(C)CCC(=O)C(C)(C)[C@@H]1C[C@@H]4O"
  inhibition at 100 µM [%]: 90.3

Task: Item CC(=O)O[C@@H]1C[C@]2(C)C3=CC[C@]4(C)[C@H]5[C@@H]6C[C@@H](C(C)C)[C@@]5(CC[C@@]4(C)[C@@H]3[C@@H](O)C[C@H]2C(C)(C)[C@H]1O[C@@H]1O[C@H](CO)[C@@H](O)[C@H](O)[C@H]1O)CO6 [RUBIANOSIDE I] has what recorded inhibition at 100 µM?
Result: -3.2

###

System: Macrophage
Assay: Inhibition of nitric oxide production in lipopolysaccharide-activated ddY mouse macrophages at 100 uM relative to control
Format: functional
OBSERVABLE: inhibition at 100 µM (%)
Numbers only here, please. The scale is %.

- RECORD_SMILES: "CC(=O)OC[C@@]12CC[C@@]3(C)[C@H]4C(=CC[C@]3(C)[C@H]1[C@H](O)C[C@H]2C(C)C)[C@@]1(C)CC[C@H](O)C(C)(C)[C@@H]1C[C@@H]4O"
  TEST_SYSTEM: "Macrophage"
  OBSERVABLE: "inhibition at 100 µM"
  REPORTED_MEASUREMENT: 25.5
- RECORD_SMILES: "CC(=O)OC[C@@]12CC[C@@]3(C)[C@H]4C(=CC[C@]3(C)[C@H]1[C@H](OC(C)=O)C[C@H]2C(C)C)[C@@]1(C)C[C@@H](OC(C)=O)C(=O)C(C)(C)[C@@H]1C[C@@H]4OC(C)=O"
  TEST_SYSTEM: "Macrophage"
  OBSERVABLE: "inhibition at 100 µM"
  REPORTED_MEASUREMENT: 23

Consider the additional compound presented here.
Task: Item CC(C)[C@@H]1C[C@@H](O)[C@H]2[C@@]1(CO)CC[C@@]1(C)[C@H]3C(=CC[C@]21C)[C@@]1(C)C[C@@H](O)[C@H](O)C(C)(C)[C@@H]1C[C@@H]3O has what recorded inhibition at 100 µM?
Result: 60.4

###

inhibition at 100 µM overview
Test system: Macrophage
Assay: Inhibition of nitric oxide production in lipopolysaccharide-activated ddY mouse macrophages at 100 uM relative to control
Assay type: functional
Numbers only here, please. The scale is %.

Example cases with answers are listed next.
- RECORD_SMILES: "COc1cc(C[C@H]2CO[C@H](c3ccc(O)c(OC)c3)[C@H]2CO)ccc1O"
  REPORTED_MEASUREMENT: 11.9
- RECORD_SMILES: "COc1cc(C(=O)O)ccc1O"
  REPORTED_MEASUREMENT: 5.9
- RECORD_SMILES: "CC(=O)OC[C@@]12CC[C@@]3(C)[C@H]4C(=CC[C@]3(C)[C@H]1[C@H](OC(C)=O)C[C@H]2C(C)C)[C@@]1(C)CC[C@H](OC(C)=O)C(C)(C)[C@@H]1C[C@@H]4OC(C)=O"
  REPORTED_MEASUREMENT: 6.6
- RECORD_SMILES: "CC(C)[C@@H]1C[C@@H](O)[C@H]2[C@@]1(CO)CC[C@@]1(C)[C@H]3C(=CC[C@]21C)[C@@]1(C)C[C@@H](O)C(=O)C(C)(C)[C@@H]1C[C@@H]3O"
  REPORTED_MEASUREMENT: 40.3
- RECORD_SMILES: "Cc1c(O)cc2c(c1O)C(=O)c1ccc(O)cc1C2=O"
  REPORTED_MEASUREMENT: 99.6

Task: Item CC(=O)OC[C@@]12CC[C@@]3(C)[C@H]4C(=CC[C@]3(C)[C@H]1[C@H](OC(C)=O)C[C@H]2C(C)C)[C@@]1(C)C[C@@H](OC(C)=O)[C@H](OC(C)=O)C(C)(C)[C@@H]1C[C@@H]4OC(C)=O has what recorded inhibition at 100 µM?
Result: 28.4

###

System: Macrophage
Assay: Inhibition of nitric oxide production in lipopolysaccharide-activated ddY mouse macrophages at 100 uM relative to control
Format: functional
The label depends only on inhibition at 100 µM: Satisfied if it is at least 80%, Not satisfied if it is smaller.

Task: Evaluate CC(=O)OC[C@@]12CC[C@@]3(C)[C@H]4C(=CC[C@]3(C)[C@H]1[C@H](O)C[C@H]2C(C)C)[C@@]1(C)C[C@@H](OC(C)=O)[C@H](O)C(C)(C)[C@@H]1C[C@@H]4O : inhibition at 100 µM at minimum 80%?
Result: Not satisfied

Task: # iterate: CC(C)[C@@H]1C[C@@H](O)[C@H]2[C@@]1(CO)CC[C@@]1(C)[C@H]3C(=CC[C@]21C)[C@@]1(C)CCC(=O)C(C)(C)[C@@H]1C[C@@H]3O
Result: Not satisfied

Task: # iterate: CC(C)[C@@H]1C[C@@H](O)[C@H]2[C@@]1(CO)CC[C@@]1(C)[C@H]3C(=CC[C@]21C)[C@@]1(C)CC[C@H](O)C(C)(C)[C@@H]1C[C@@H]3O
Result: Satisfied

Task: # iterate: CC(=O)OC[C@@]12CC[C@@]3(C)[C@H]4C(=CC[C@]3(C)[C@H]1[C@H](O)C[C@H]2C(C)C)[C@@]1(C)C[C@@H](O)[C@H](O)C(C)(C)[C@@H]1C[C@@H]4O
Result: Not satisfied

Task: # iterate: CNC(=N)NCCC[C@H](N)C(=O)O
Result: Not satisfied

Task: # iterate: CC(=O)OC[C@@]12CC[C@@]3(C)[C@H]4C(=CC[C@]3(C)[C@H]1[C@H](O)C[C@H]2C(C)C)[C@@]1(C)C[C@@H](O)C(=O)C(C)(C)[C@@H]1C[C@@H]4O
Result: Not satisfied

###

Test system: Macrophage
Experiment: Inhibition of nitric oxide production in lipopolysaccharide-activated ddY mouse macrophages at 100 uM relative to control
Assay type: functional
inhibition at 100 µM overview
Numbers only here, please. The scale is %.

Task: Item COc1cc(C[C@@H](CO)[C@H](CO)Cc2ccc(O)c(OC)c2)ccc1O [(+)-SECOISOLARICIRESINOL] has what recorded inhibition at 100 µM?
Result: -12.5

Task: # iterate: COc1cc([C@H]2c3cc(O)c(OC)cc3C[C@@H](CO)[C@@H]2CO)ccc1O [ISOLARICIRESINOL]
Result: 7.5

Task: # iterate: COc1cc(O)cc(OC)c1C(=O)O
Result: 28

###

inhibition at 3 µM overview
Tested on: Macrophage
Assay: Inhibition of nitric oxide production in lipopolysaccharide-activated ddY mouse macrophages at 3 uM relative to control
Assay type: functional
Numbers only here, please. The scale is %.

Example cases with answers are listed next.
- COMPOUND: "CC(=O)OC[C@@]12CC[C@@]3(C)[C@H]4C(=CC[C@]3(C)[C@H]1[C@H](O)C[C@H]2C(C)C)[C@@]1(C)C[C@@H](OC(C)=O)[C@H](O)C(C)(C)[C@@H]1C[C@@H]4O"
  TEST_SYSTEM: "Macrophage"
  REPORTED_MEASUREMENT: 21.3
- COMPOUND: "COc1cc(O)cc(OC)c1C(=O)O"
  TEST_SYSTEM: "Macrophage"
  REPORTED_MEASUREMENT: 9.3
- COMPOUND: "CC(=O)O[C@@H]1C[C@]2(C)C3=CC[C@]4(C)[C@H]5[C@@H]6C[C@@H](C(C)C)[C@@]5(CC[C@@]4(C)[C@@H]3[C@@H](O)C[C@H]2C(C)(C)[C@H]1O[C@@H]1O[C@H](CO)[C@@H](O)[C@H](O)[C@H]1O)CO6 [RUBIANOSIDE I]"
  TEST_SYSTEM: "Macrophage"
  REPORTED_MEASUREMENT: -0.3
- COMPOUND: "CNC(=N)NCCC[C@H](N)C(=O)O"
  TEST_SYSTEM: "Macrophage"
  REPORTED_MEASUREMENT: 10.3
- COMPOUND: "CC(=O)OC[C@@]12CC[C@@]3(C)[C@H]4C(=CC[C@]3(C)[C@H]1[C@H](O)C[C@H]2C(C)C)[C@@]1(C)C[C@@H](O)C(=O)C(C)(C)[C@@H]1C[C@@H]4O"
  TEST_SYSTEM: "Macrophage"
  REPORTED_MEASUREMENT: -1.5

Task: Item CC(C)[C@@H]1C[C@@H](O)[C@H]2[C@@]1(CO)CC[C@@]1(C)[C@H]3C(=CC[C@]21C)[C@@]1(C)C[C@@H](O)C(=O)C(C)(C)[C@@H]1C[C@@H]3O has what recorded inhibition at 3 µM?
Result: -10.3
